Origin of the recorded values: patent US20220411362A1

# target: C1b domain of human PKCθ (Homo sapiens)
# Construct: Genes encoding C1b domains of human PKCα, δ, ε, θ, and PKD1 (PKCμ) were synthesized; made in house; host or cells: E. coli BL21(DE3)
# Sequence (Q04759 231-281 limits assumed): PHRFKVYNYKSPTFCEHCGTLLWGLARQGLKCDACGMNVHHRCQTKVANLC
# experiment-summary: Competitive 3H-PDBu binding to C1b domain of PKCθ
# Method: Compounds described in this disclosure were tested for binding affinity to C1b domain of PKC isoforms. […] The plate was incubated at 37° C. on a shaker at 300 rpm for 10 minutes and then put on ice for 20 minutes. […] The bottom of the filter plate was sealed and 50 μL of MicroScint-20 (PerkinElmer) cocktail was added to each well. ^3H-PDBu trapped in each well was counted using PerkinElmer MicroBeta2 Reader. […] Kd is the binding affinity of each protein preparation to ^3H-PDBu, determined experimentally.
pKi: −log10 of the molar value.
Give pKi for every item shown.

Reported pKi ( CC1=C[C@H]2[C@@]3(O)[C@H](C)C[C@]4(OC(=O)[C@@H](N)[C@]56C[C@H]7C[C@H](C[C@H](C7)C5)C6)[C@H]([C@@H]3C=C(CO)C[C@]2(O)C1=O)C4(C)C ) = > 8.30

CC1=C[C@H]2[C@@]3(O)[C@H](C)C[C@]4(OC(=O)CCCc5ccccc5)[C@H]([C@@H]3C=C(CO)C[C@]2(O)C1=O)C4(C)C yielded pKi of > 8.30

For reference, reported pKi for CC/C=C\C/C=C\C/C=C\C/C=C\C/C=C\C/C=C\CCC(=O)O[C@@]12C[C@@H](C)[C@@]3(O)[C@@H](C=C(CO)C[C@]4(O)C(=O)C(C)=C[C@@H]34)[C@@H]1C2(C)C stands at > 8.30

Field pKi (entry CC1=C[C@H]2[C@@]3(O)[C@H](C)C[C@]4(OC(=O)[C@H](N)CCCCCCc5ccc(C(F)(F)F)cc5)[C@H]([C@@H]3C=C(CO)C[C@]2(O)C1=O)C4(C)C ) reads 7.22 to 7.52

response.value for CC1=C[C@H]2[C@@]3(O)[C@H](C)C[C@]4(OC(=O)[C@@H](N)CCCCCCc5ccc(C(F)F)cc5)[C@H]([C@@H]3C=C(CO)C[C@]2(O)C1=O)C4(C)C (field: pKi) = 7.52 to 9.00
